# Test details: qHTS assay to identify small molecule antagonists of the constitutive androstane receptor (CAR) signaling pathway - cell viability counter screen (AID 1224837); also: nearly all actives have a fitted effect of over 45% in size
# Assay conditions: HepG2-CYP2B6-hCAR viability, CellTiter-Fluor, 23 h, co-treated with 50 nM CITCO; series mostly up to 92.4 µM
Records with an inconclusive call do not appear. Active and inactive are the calls of the source. Calls follow the shape of the dose curve; as a rule, active = well fitted cell-killing curve with a large enough effect in the repeat runs; inconclusive = weak or mixed curves, or effect the other way; inactive = flat fitted curve, though single readings scatter.
Outcomes: yes (1) = active, no (0) = inactive

{"columns": ["Compound", "Assigned label"],
 "data": [
  ["Nc1ccc(N)c2ccccc12", "yes (1)"],
  ["Clc1ccc2cc3ccccc3cc2c1", "no (0)"],
  ["C[C@H](CCC(=O)O)[C@H]1CC[C@H]2[C@@H]3CC[C@@H]4C[C@H](O)CC[C@]4(C)[C@H]3CC[C@]12C", "no (0)"],
  ["c1cc(C(c2ccc(OCC3CO3)cc2)c2ccc(OCC3CO3)cc2)ccc1OCC1CO1 (centres undefined)", "no (0)"],
  ["CCCCC(CC)COC(=O)c1ccccc1C(=O)O (centres undefined)", "no (0)"],
  ["Clc1ccc(C(Cn2ccnc2)OCc2ccc(Sc3ccccc3)cc2)c(Cl)c1 (centres undefined)", "no (0)"],
  ["OC1(c2ccc(Cl)c(C(F)(F)F)c2)CCN(CCCC(c2ccc(F)cc2)c2ccc(F)cc2)CC1", "yes (1)"],
  ["CC(C)(C)c1ccc(C(=O)CCCN2CCC(OC(c3ccccc3)c3ccccc3)CC2)cc1", "yes (1)"],
  ["On1ccccc1=S", "yes (1)"],
  ["CC(C)(C)NC(=O)[C@@H]1C[C@@H]2CCCC[C@@H]2CN1C[C@@H](O)[C@H](Cc1ccccc1)NC(=O)[C@H](CC(N)=O)NC(=O)c1ccc2ccccc2n1", "yes (1)"],
  ["C=C(C)C(=O)OCC[N+](C)(C)C", "no (0)"],
  ["O=C(O)c1c(Cl)cccc1Cl", "no (0)"],
  ["CCCN(CCC)c1c([N+](=O)[O-])cc(C(F)(F)F)c(N)c1[N+](=O)[O-]", "yes (1)"],
  ["CCCCCCOC(=O)c1ccc(O)cc1", "no (0)"]
]}

---

# Target under test: Estrogen receptor (Homo sapiens)
# Test details: qHTS assay to identify small molecule agonists of the estrogen receptor alpha (ER-alpha) signaling pathway using the BG1 cell line (AID 743079); also: potency is read from the fitted curve at half-maximal effect; nearly all actives have a fitted effect of over 20% in size
# Assay conditions: BG1Luc4E2 cells, ERE-luciferase agonist, 22 h
Results filed as inconclusive are left out. The source made the active and inactive calls. The call rests on the fitted dose curve; in most records, active means well fitted activation curve with a large enough effect in the repeat runs; inconclusive means weak or mixed curves, or effect the other way; inactive means no such curve, though single readings can be large or run the other way.
# Lookup of reported Potency keyed by entry

{"columns": ["Compound", "Potency"],
 "data": [
  ["CCCN(CCC)C(=O)C(CCC(=O)OCCCN1CCN(CCOC(=O)Cc2c(C)n(C(=O)c3ccc(Cl)cc3)c3ccc(OC)cc23)CC1)NC(=O)c1ccccc1 (configuration not stated)", "0.211 µM (active)"],
  ["CCCCCCCCCCCCc1ccc(O)cc1", "0.969 µM (active)"],
  ["O=C1CCCc2c1cc1ccc3cccc4ccc2c1c34", "3.9 µM (active)"],
  ["Oc1ccc(N=Nc2ccccc2)cc1", "6.19 µM (active)"],
  ["Nc1ccc2c3c(cccc13)-c1ccccc1-2", "8.72 µM (active)"],
  ["O=Cc1cc(O)ccc1Br", "31.1 µM (active)"],
  ["CN(C)c1ccc(SC#N)cc1", "61.1 µM (active)"]
]}
